biological target: T1, cynomolgus monkey CD22 on B cells of cynomolgus PBMCs (cynomolgus monkey); assay: flow cytometry; Alexa Fluor 647-labelled antibody on CD20+ B cells of cynomolgus PBMCs; also: test concentration or dose not given here
T1 construct: whole, on cells; also called cynomolgus CD22; Cyno CD22
assay.readout: CD22 Median Fluorescent Intensity on CD20+ cells
Simply state the number, no unit and no words.

Answered examples (2):
binder: TNT82 (antibody, human IgG1, kappa, V domains shown) VH: QVQLLESGGGVVQPGGSLRLSCAASGFAFSIYDMNWVRQAPGKGLEWVSAISSGGGTTYYADSVKGRFTISRDNAKNSLYLQMNSLRAEDTAVYYCARHSGYGTHWGVLFAYWGRGTLVTVSS VL: EIVLTQSPATLSLSPGERATLSCRASQDIHGYLNWYQQKPGQAPRLLIYYTSILHSGIPARFSGSGPGTDFTLTISSLEPEDFAVYYCQQGNTLPWTFGGGTKLEIKR
data.value: 1170
//
binder: TNT88 (antibody, human IgG1, kappa, V domains shown) VH: QVQLQESGPGLVKPSDTLSLTCTVSGFAFSIYDMSWIRQPPGKGLEWIAYISSGGGTTYYNPSLKSRVTISVDTSKNQFSLKLSSVTAADTAVYYCARHSGYGTHWGVLFAYWGRGTLVTVSS VL: DIVMTQTPLSLSVTPGQPASISCRASQDIHGYLNWYQQKPGQSPQLLIYYTSILHSGVPDRFSGSGSGTDFTLKISRVEAEDVGVYFCQQGNTLPWTFGGGTKLEIKR
data.value: 1270

// moving on: another record for CD22 Median Fluorescent Intensity on CD20+ cells
Entry TNT76 (antibody, human IgG1, kappa, V domains shown) VH: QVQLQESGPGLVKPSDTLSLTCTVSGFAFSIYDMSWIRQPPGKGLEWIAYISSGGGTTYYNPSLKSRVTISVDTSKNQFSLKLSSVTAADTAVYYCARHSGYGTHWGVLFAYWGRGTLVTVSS VL: DIQMTQSPSSVSASVGDRVTITCRASQDIHGYLAWYQQKPGKAPKLLIYYTSSLQSGVPSRFSGSGSGTDFTLTISSLQPEDFATYYCQQGNTLPWTFGQGTKLEIKR — recorded CD22 Median Fluorescent Intensity on CD20+ cells = 140
